TARGET_DESC: T1, exemplary TAT frataxin fusion molecule (HIV-1, UniProt Q16595 1-210)
T1 construct: in the bridging assays biotinylated and sulfotagged forms were used; also called TAT-FXN fusion molecule; TAT FXN fusion molecule
T1 sequence: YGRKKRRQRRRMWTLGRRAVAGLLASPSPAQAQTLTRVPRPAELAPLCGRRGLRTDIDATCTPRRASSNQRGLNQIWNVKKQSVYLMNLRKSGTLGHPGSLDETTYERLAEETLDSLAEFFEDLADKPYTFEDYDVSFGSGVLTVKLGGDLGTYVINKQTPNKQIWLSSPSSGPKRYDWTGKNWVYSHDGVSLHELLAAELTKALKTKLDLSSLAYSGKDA
EXPERIMENTAL_DETAILS: PK sandwich ELISA in human plasma, antibody as capture, HRP anti-frataxin mAb detection
PROPERTY_LABEL: S/N at plasma conc. 3.20 ng/mL

1. antibody 10-4 (antibody, V domains shown, Rabbit monoclonal) VH: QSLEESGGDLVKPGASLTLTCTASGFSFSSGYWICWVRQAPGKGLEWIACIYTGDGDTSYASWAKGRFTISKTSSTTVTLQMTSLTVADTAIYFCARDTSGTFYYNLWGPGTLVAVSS VL: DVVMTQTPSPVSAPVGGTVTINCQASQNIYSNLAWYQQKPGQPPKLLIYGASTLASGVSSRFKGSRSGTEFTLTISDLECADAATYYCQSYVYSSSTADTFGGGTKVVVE : 4.1
2. antibody 12-3 (antibody, V domains shown, Rabbit monoclonal) VH: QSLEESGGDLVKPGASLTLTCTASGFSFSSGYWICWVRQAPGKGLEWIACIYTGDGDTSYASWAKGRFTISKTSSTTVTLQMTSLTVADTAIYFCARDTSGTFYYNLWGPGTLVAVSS VL: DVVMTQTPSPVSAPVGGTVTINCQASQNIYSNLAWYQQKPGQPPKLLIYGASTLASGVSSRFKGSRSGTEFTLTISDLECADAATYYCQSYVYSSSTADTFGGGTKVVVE : 5.1
3. antibody 12-10 (antibody, V domains shown, Rabbit monoclonal) VH: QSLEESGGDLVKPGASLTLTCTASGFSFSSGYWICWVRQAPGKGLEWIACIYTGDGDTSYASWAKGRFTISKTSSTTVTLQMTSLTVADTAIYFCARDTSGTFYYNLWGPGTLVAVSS VL: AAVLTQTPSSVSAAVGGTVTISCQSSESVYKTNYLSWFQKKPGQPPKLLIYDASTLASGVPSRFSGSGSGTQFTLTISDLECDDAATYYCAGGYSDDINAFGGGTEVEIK : 4.9
